TGI for assorted compounds
Test system: SK-MEL-28 melanoma
Assay: NCI tumour cell line growth inhibition, 48 h

CN(C)CCn1c(=O)c2ccc(NCCNCCO)c3c(=O)c4ccccc4n(c1=O)c23
> 19.7 µM

For the record `NC(=S)N/N=C/c1ccc(OC(=O)COc2ccc(Cl)cc2)cn1` , what value of TGI is listed for SK-MEL-28 melanoma? > 100 µM

For the record `O=[N+]([O-])/C(C(Cl)=C(Cl)Cl)=C1\Nc2ccc([N+](=O)[O-])cc2N1` , what value of TGI is listed for SK-MEL-28 melanoma? > 100 µM

For the record `CN(C)CCCn1c2c(c3ccccc3c1=O)C(=O)c1ccccc1-2` , what value of TGI is listed for SK-MEL-28 melanoma? 18.3 µM

For the record COC(=O)C1=NC(=S)NC(c2ccccc2)C1c1nc2ccccc2s1 (stereo not given) , what value of TGI is listed for SK-MEL-28 melanoma? > 100 µM

For the record `Nc1ncc(-c2cnn(CCO)c2)c2scc(-c3ccc(NC(=O)Nc4cccc(F)c4)cc3)c12` , what value of TGI is listed for SK-MEL-28 melanoma? 3.56 µM

For the record `CCS(=O)(=O)c1ccc(OC)c(Nc2ncc(-c3cccc(C(C)=O)c3)o2)c1` , what value of TGI is listed for SK-MEL-28 melanoma? > 25 µM

For the record `CC(C)C[C@H]1[C@@H](OCc2ccccc2)COS(=O)(=O)N1[C@H](C)c1ccccc1` , what value of TGI is listed for SK-MEL-28 melanoma? > 100 µM

For the record CC12CCCC(O)C1CCC1=CC3(CCC12)SCCS3 (stereo not given) , what value of TGI is listed for SK-MEL-28 melanoma? > 10 µM

For the record COc1ccc(CC2Cc3ccccc3CCN2)cc1OC (stereo not given) , what value of TGI is listed for SK-MEL-28 melanoma? > 50 µM

---

Tested on: ACHN renal
Experiment: NCI tumour cell line growth inhibition, 48 h
readout_kind: TGI

Worked cases, TGI given:
CN/N=C(/CCN1CCCC1)CC(c1ccccc1)c1c(O)c2ccccc2oc1=O (centres undefined)
> 100 µM
C[C@]12CC[C@H]3[C@@H](CCC4=CC(=O)CC[C@@H]43)[C@@H]1CC[C@]2(O)C(N)=O
> 100 µM

Quick one: TGI for `COc1cc2c(cc1OCCCNC(=O)c1cc3ccccc3[nH]1)N=C[C@@H]1CCCN1C2=O` ? > 100 µM

Quick one: TGI for `COC(=O)/C(C)=N/NC(=S)SC` ? > 100 µM

Quick one: TGI for CC(=O)NC1C(OCc2ccccc2)OC(CO)C(O)C1OC(C)C(=O)NC(C(=O)NC(CCC(=O)NCCCC(=O)Nc1ccc2c(c1)CN1C(=O)c3ccccc3C1=N2)C(N)=O)C(C)C (centres undefined) ? > 100 µM

Quick one: TGI for O=S(=O)(/N=S(/Nc1ccccc1)C(Cl)Cl)c1ccccc1 (centres undefined) ? > 100 µM

Quick one: TGI for `Nc1cc(Cl)cc2cc(Cl)cnc12` ? > 100 µM

Quick one: TGI for `CCCCN=C(N)c1ccc(OCCSCCOc2ccc(C(N)=NCCCC)cc2)cc1` ? > 100 µM

Quick one: TGI for O=C(CC(O)(C(F)(F)F)C(F)(F)F)C(c1ccccc1)C(O)(C(F)(F)F)C(F)(F)F (centres undefined) ? 79.5 µM

---

log10 TGI for assorted compounds
System: OVCAR-5 ovarian
Assay: NCI tumour cell line growth inhibition, 48 h
Give log10 of TGI, with TGI taken in µM.

Worked cases, log10 TGI given:
CC(=O)OC[C@]12CC[C@H]3[C@@H](C[C@H]4O[C@]45[C@@H](O)C=CC(=O)[C@]35C)[C@@H]1CC[C@@H]2[C@H](C)[C@H]1CC(C)=C(C)C(=O)O1
0.40
O=C(c1cccc(O)c1O)c1cn(Cc2ccc(F)cc2)c2cccc(O)c12
1.42
Cc1ccc(/C(=C/C=C(C#N)C#N)Sc2ccc(Cl)cc2)cc1
1.41
O=C(Nc1ccc(Cl)cc1)c1cc(-c2ccc(F)cc2)c2sc(=O)[nH]c2n1
0.90

# ---- query compound ----
Quick one: log10 TGI for `CC(C)c1ccc(C(=O)Nc2sc3c(c2C(N)=O)CCC(=O)C3)cc1` ? 0.49

---

TGI for assorted molecules
Test system: UACC-257 melanoma
Test: NCI tumour cell line growth inhibition, 48 h

Worked cases, TGI given:
CC[O-].CC[O-].O=C1c2ccccc2C(=O)c2c(O)ccc([O-])c21.O=C1c2ccccc2C(=O)c2c(O)ccc([O-])c21.[Ti+4]
> 100 µM
CC12CCCC(O)C1CCC1=CC3(CCC12)SCCS3 (centres undefined)
> 10 µM

Quick one: TGI for CCN(CC)CCCC(C)Nc1c(C)cnc2cc(Cl)c(C)cc12 (centres undefined) ? 34.4 µM

Quick one: TGI for `Cc1ccc(N(C(=O)CC(=O)NN)C(=O)c2ccccc2Cl)cc1` ? > 100 µM

Quick one: TGI for O=C(CC(O)(C(F)(F)F)C(F)(F)F)C(c1ccccc1)C(O)(C(F)(F)F)C(F)(F)F (centres undefined) ? > 100 µM

---

Tested on: HT29 colon
Experiment: NCI tumour cell line growth inhibition, 48 h
readout_kind: TGI

Worked cases, TGI given:
NCCCC[C@@H]1NC(=O)[C@H]2CCCN2C(=O)[C@H](Cc2ccccc2)NC(=O)[C@H](Cc2ccccc2)CNC1=O
> 100 µM
COC(=O)C(=O)C(C(=O)C(=O)Nc1ccccc1C(N)=O)c1nc2ccc(Cl)cc2[nH]c1=O (stereo unspecified)
> 100 µM
Cn1cc(C(=O)c2ccccc2)ccc1=O
> 100 µM
COc1cc(C2C3=C(COC3=O)OC(C)(C)Oc3cc4c(cc32)OCO4)cc(OC)c1O (stereo unspecified)
> 23.3 µM
CC(=O)Nc1ccc(-c2nc3ccccc3s2)cc1Br
> 100 µM

Quick one: TGI for `O=C(O)CN(c1ccccc1)S(=O)(=O)c1ccccc1[N+](=O)[O-]` ? > 100 µM

Quick one: TGI for COc1cc(C2=NN(C(C)=O)C(c3ccc(OC(C)=O)cc3OC(C)=O)O2)c(OC(C)=O)c2ccccc12 (stereo unspecified) ? 41.3 µM

Quick one: TGI for NC1C/C(=N\O)c2c(Cl)sc(Cl)c21 (stereo unspecified) ? 54.6 µM

Quick one: TGI for CC12CCCC(C(=O)O)(C1)[C@H](C(C)(C)C(=O)O)CC2 (stereo partly specified) ? > 100 µM

Quick one: TGI for CC(=O)OCC1OC(NC(=S)Nn2c(=O)[nH]c3ccccc3c2=O)C(OC(C)=O)C(OC(C)=O)C1OC(C)=O (stereo unspecified) ? > 100 µM

Quick one: TGI for `CCS(=O)(=O)c1ccc(OC)c(Nc2ncc(-c3cccc(OC)c3)o2)c1` ? > 25 µM

Quick one: TGI for `C/C(Cl)=N/OC(=O)Nc1ccc(F)c([N+](=O)[O-])c1` ? > 52.7 µM

Quick one: TGI for CCCCCCCCCCCCCC1CCC(CC)N1 (stereo unspecified) ? 15.1 µM

Quick one: TGI for CCOC1=NC(=O)CC(c2ccccc2)S1 (stereo unspecified) ? > 100 µM

Quick one: TGI for CC(=O)OC1C=C(C=O)C(O)(C=O)C2(C)CCCC(C)(C)C12 (stereo unspecified) ? 3.65 µM

Quick one: TGI for `Cc1ccc(-c2c(C#N)c(-c3ccccc3)n(NS(=O)(=O)c3ccc(C)cc3)c(=O)c2C#N)cc1` ? > 100 µM

Quick one: TGI for `CCN(CCCl)c1cc(CN(C)C)cc(NC(=O)c2ccc(C(=O)Nc3cc(CN(C)C)cc(N(CC)CCCl)c3)cc2)c1` ? 3.55 µM

Quick one: TGI for O=C1CC(Br)c2c(Br)sc(Br)c21 (stereo unspecified) ? 30.4 µM

Quick one: TGI for `O=C1c2ccccc2-c2nnc(-c3ccc([N+](=O)[O-])cc3)cc21` ? > 10 µM

Quick one: TGI for `COC(=O)c1ccccc1/C=C1\Cc2c(ccc3c2CCC3)C1=O` ? > 100 µM

Quick one: TGI for `O=C1c2ccccc2-c2c1c1ccccc1c(=O)n2Cc1ccccc1` ? > 100 µM

---

System: HCC-2998 colon
Experiment: NCI tumour cell line growth inhibition, 48 h
readout_kind: GI50

Worked cases, GI50 given:
COc1cc2c(/C=C3/C(=O)Nc4ccc(O)cc43)c(Cl)n(Cc3ccccc3)c2cc1C
201 nM
Cc1cn2c(/C=C3/C(=O)N(C)c4ccccc43)c(C)nc2s1
7970 nM

For the record CC1CN1CC(O)C(O)CN1CC1C (stereo not given) , what value of GI50 is listed for HCC-2998 colon? 6210 nM

For the record `Nc1ncc(-c2cnn(CCO)c2)c2scc(-c3ccc(NC(=O)Nc4cccc(F)c4)cc3)c12` , what value of GI50 is listed for HCC-2998 colon? 1390 nM

For the record `COC(=O)Nc1nc2ccc(Oc3ccc(NC(=O)Nc4ccccc4)cc3)cc2[nH]1` , what value of GI50 is listed for HCC-2998 colon? 458 nM
